TGT: HA of ca A/mallard/Alberta/89/85 (H6N2) virus (influenza A virus)
ASSAY NAME: cell-based or functional assay
Provide the reported Neutralization IC50, H6-AB85 of each item.
Give bare numbers, in µg/mL.

Antibody 15 (antibody, V domains shown) VH: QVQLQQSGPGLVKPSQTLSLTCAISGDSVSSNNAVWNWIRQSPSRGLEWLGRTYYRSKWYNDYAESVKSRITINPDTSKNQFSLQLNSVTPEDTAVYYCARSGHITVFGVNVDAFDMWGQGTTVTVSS VL: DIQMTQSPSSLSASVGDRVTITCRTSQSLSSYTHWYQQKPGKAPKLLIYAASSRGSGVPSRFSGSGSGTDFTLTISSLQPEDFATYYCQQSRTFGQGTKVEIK = 0.19

Switching to the query record.
What does the record list as Neutralization IC50, H6-AB85 for Antibody 14 (antibody, V domains shown) VH: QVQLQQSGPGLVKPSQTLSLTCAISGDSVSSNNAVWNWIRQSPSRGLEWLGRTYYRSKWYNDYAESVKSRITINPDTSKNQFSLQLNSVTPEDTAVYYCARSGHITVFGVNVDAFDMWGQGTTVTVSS VL: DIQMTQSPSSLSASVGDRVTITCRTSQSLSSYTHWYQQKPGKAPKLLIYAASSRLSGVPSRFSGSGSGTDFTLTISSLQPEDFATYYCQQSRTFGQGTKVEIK ?
0.26
